# TARGET OF ASSAY: FTM-NN protein (membrane anchorless form of the Long fusion protein of hRSV, 70 kDa) (human respiratory syncytial virus, …, UniProt P12568 26-524)
# TEST PROTOCOL: competition ELISA, periplasmic extract diluted 1:100, competitor 101F Fab
QUANTITY MEASURED: % Inhibition 101F Fab (1:100 PE)

[in] Supply % Inhibition 101F Fab (1:100 PE) value. Item: PMP8B10 (VHH) VHH: EVQLVESGGGLVQAGASLRLSCAASGLAFSRYAMGWFRQAPGKERESVAAISSSGDNIYYADSVKGQFTMSRDNAKSSVYLQMINLKPEDTAVYYCAATSPLFVASDYFEASRYGYWGQGTQVTVSS
[out] 56%
